- tested_system: BLVRB (Homo sapiens)
- Sequence (P30043 1-206): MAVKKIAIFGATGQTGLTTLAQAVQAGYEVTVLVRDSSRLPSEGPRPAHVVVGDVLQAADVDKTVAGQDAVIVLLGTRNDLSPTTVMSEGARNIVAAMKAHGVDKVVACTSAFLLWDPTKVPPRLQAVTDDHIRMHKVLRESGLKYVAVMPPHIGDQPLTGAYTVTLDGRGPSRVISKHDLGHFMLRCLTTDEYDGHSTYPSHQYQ
Hi there, I'd appreciate the recorded Kd for every entry that follows.
Answer format: number, then unit.

1) O=C([O-])c1c(Cl)c(Cl)c(Cl)c(Cl)c1-c1c2cc(Br)c(=O)c(Br)c-2oc2c(Br)c([O-])c(Br)cc12.[Na+].[Na+] [Phloxine B, reference compound]; 1360 nM
2) O=C(O)c1ccccc1-c1c2cc(I)c(=O)c(I)c-2oc2c(I)c(O)c(I)cc12 [Erythrosin B, reference compound]; 160 nM

Hi team, please reply with Kd for each item in this list.
1. O=C(O)c1cc2ccccc2c(Cc2c(O)c(C(=O)O)cc3ccccc23)c1O
2. O=C(O)c1cccc(-c2noc(-c3ccccc3F)n2)c1
3. Cc1c(Nc2ncccc2C(=O)O)cccc1C(F)(F)F

1800 nM
200 nM
270 nM

Would you kindly share the measured Kd for `CC1(C)CCC(C)(C)c2cc(NC(=O)c3ccc(C(=O)O)cc3)ccc21` ?
1380 nM

Just for reference, patent US11744839B2 is where these values come from.
